system: gluten-reactive T cells; assay: Overnight IFNγ ELISpot assay with fresh PBMC; type: cell-based, human; conditions: Subject 8; after oral gluten challenge; Max. 17 SFU
Non-standard residues stand in square brackets, D forms with d. pGlu = O=C1CC[C@@H](C(=O)O)N1
readoutLabel: Percent of maximal response to individual gluten peptides, ELISp

[Q] Request body: readout Percent of maximal response to individual gluten peptides, ELISp, system gluten-reactive T cells, query (pE)SGEGSFQPSQENPQ-amide ([pGlu]SGEGSFQPSQENPQ-NH2; SMILES NC(=O)CC[C@H](NC(=O)[C@@H]1CCCN1C(=O)[C@H](CC(N)=O)NC(=O)[C@H](CCC(=O)O)NC(=O)[C@H](CCC(N)=O)NC(=O)[C@H](CO)NC(=O)[C@@H]1CCCN1C(=O)[C@H](CCC(N)=O)NC(=O)[C@H](Cc1ccccc1)NC(=O)[C@H](CO)NC(=O)CNC(=O)[C@H](CCC(=O)O)NC(=O)CNC(=O)[C@H](CO)NC(=O)[C@@H]1CCC(=O)N1)C(N)=O) [Peptide 9] . Return the value.
[A] 6 % of max

[Q] Request body: readout Percent of maximal response to individual gluten peptides, ELISp, system gluten-reactive T cells, query (pE)QPYPQPELPYPQPQ-amide ([pGlu]QPYPQPELPYPQPQ-NH2; SMILES CC(C)C[C@H](NC(=O)[C@H](CCC(=O)O)NC(=O)[C@@H]1CCCN1C(=O)[C@H](CCC(N)=O)NC(=O)[C@@H]1CCCN1C(=O)[C@H](Cc1ccc(O)cc1)NC(=O)[C@@H]1CCCN1C(=O)[C@H](CCC(N)=O)NC(=O)[C@@H]1CCC(=O)N1)C(=O)N1CCC[C@H]1C(=O)N[C@@H](Cc1ccc(O)cc1)C(=O)N1CCC[C@H]1C(=O)N[C@@H](CCC(N)=O)C(=O)N1CCC[C@H]1C(=O)N[C@@H](CCC(N)=O)C(N)=O) [Peptide 15] . Return the value.
[A] 6 % of max

[Q] Request body: readout Percent of maximal response to individual gluten peptides, ELISp, system gluten-reactive T cells, query (pE)QPPFSEQEQPVLPQ-amide (N-terminal pyroglutamate; C-terminal amide) [Peptide 13] . Return the value.
[A] 0 % of max
